Form field: apparent KD of MS2 coat protein (one value per entry).
Test system: MS2 coat protein
Experiment: apparent KD of MS2 coat protein; higher = weaker reporter binding
Conditions: Eterna round: R107; input ligand: arginine 13.2 mM
Lab book: enter the figure in nM, no units written.

A selection of reference data follows.
1) GGGCGCGAGACGGCCGCCACUACACAUGAGGAUCACCCAUGUAUGGCAACAUGAGGAUCUGCCAUUAGGACCGGGUCAGGGCCCA: 29.3
2) UUAAGAGGAUAUCAAAUUUGAUUUUGUGAUACCAGAAUAAUUUUAUUCCCUUGGCAGCAUGACAUGAGGAUCACCCAUGUGUCUU [SSTheo A #1]: 37.3

Query :: # input sequence: UACUUGCUGACGGCCGCCACUAGAACAUGAGGAUCACCCAUGUAUGGCGGCCGUCAUGGGUGGACUAGGACCGGGUCAGCAAGAU [(Trp1)-(Ms2)-(T)'-(M)'-(Trp2)_Design7] ; wanted: its apparent KD of MS2 coat protein
Result :: 11.4

Query :: Okay, and UGUAUGUGAUUUGAUACCAGAUCAGCUGGUUAUACAUGAGGAUCACCCAUGUUACUUUGGGUCCCUUGGCAGCAAAUCGCAUACU [SSTheo B #26] ?
Result :: 165

Query :: Okay, and UAUAUAUACUCGGCCGCCACUGAGAGAGUCAUGUAAACAUGAGGAUCACCCAUGUAAUAUAUAUACAGGACCGGGAGUAUAUUAA [4.A] ?
Result :: 19.1

Query :: Okay, and AAAAGAGGUGGAAGGAGCGGGAGACAUGAGGAUCACCCAUGUGAUGUUACGAAAGGUUCAGCCCAGGUAGGUCGCCAUGUCGAAA [zczzmullin] ?
Result :: 36.6

Query :: Okay, and ACAUGAGGAUCACCCAUGUAAUGGCACGAUACCAGCUGAUCCCGUGGCCCUUGGCAGCGUCCGGUGUGGUCCGGCGGGUUGGACG [LLLMULLIN] ?
Result :: 14.5

Query :: Okay, and UGUAAUGGGAUCAACCCAUGAGAGUCUGAAGGAGCGAUCGUAAGAUCAGGUAGGUCGCAGGAGACAUGAGGAUCACCCAUGUAUA [Arg A Ex t2] ?
Result :: 33.3

---

Test system: MS2 coat protein
Assay: apparent KD of MS2 coat protein; designed switch direction (-1 OFF switch, 1 ON switch): -1; higher = weaker reporter binding
Conditions: Eterna round: R95; input ligand: FMN 200 uM
Mark 1 for reported apparent KD of MS2 coat protein of 30 nM or greater; mark 0 for anything smaller.

1) AAAUACAAGUAAAGAUUCUACAUGAGGAUCACCCAUGUGCUCGUCUUAUAAAGUACUAUCACGAAAGUGAUAGUACA [Sensor 3, v1 - 26] (puzzle: Sensor v3, turn-off variant 1): 0
2) AGUACUAACACGAAAGUGUUAGUACAAUAAGCUUGUGUUACAUGAGGAUCACCCAUGUCCUCAUAAGCUCGUCUUAA [Mat - Sensor v3 - Turn-off var 2 - D49] (puzzle: Sensor v3, turn-off variant 2): 1
3) AUUUUAAUAUAGGAUAUCGAAAUAAUUAUUUAACGAGAAGGAUGAACAUGAGGAUCACCCAUGUGGUAUCAUGG [Mat - Exclusion 6 - JL Mod - D32] (puzzle: Exclusion 6): 1
4) CUGGUCCGAGGAUAUAUUAUGUGAAACAUGAGGAUCACCCAUGUUAUAUAAUGGAUGUAAAUAGAAGGCGGACUAG [Mat - Exclusion 5 - JL mod - D62] (puzzle: Exclusion 5): 0
5) AAUAACAAGUAAGGUCCUAACAUGAGGAUCACCCAUGUGCUCGUCUUAUAAAGUACUAUCACGAAAGUGAUAGUACA [Sensor 3, v1 - 52] (puzzle: Sensor v3, turn-off variant 1): 1

Query :: hey, is apparent KD of MS2 coat protein for this one >= 30 nM? AGAAAUGUCCAUGGCCGCAAGCUUUUUACUUGUCUUACCACAUGAGGAUCACCCAUGUGACAUGGACUCCUUAUGAU [Sensor v3, turn-off variant 2 (MOD of Oranla v.3)] (puzzle: Sensor v3, turn-off variant 2)
Result :: 0

Query :: Okay, and AAGUACCGUCACGAUAGUGAUGGUACAACAAGCGAAUGUACAUGAGGAUCACCCAUGUCCUCUUUUGCUCGUCUUAU [Sensor 3 - 97] (puzzle: Sensor v3, turn-off variant 2) ?
Result :: 1
